biological target: CBP KIX domain (CREBBP KIX domain) (human, UniProt Q92793 585-672); assay: fluorescence polarisation
Sequence (Q92793 585-672): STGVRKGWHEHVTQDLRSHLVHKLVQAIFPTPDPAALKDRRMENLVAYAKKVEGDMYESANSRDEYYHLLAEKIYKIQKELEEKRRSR
Ends that are not written are not given here.

[
  {
    "binder": "SDDGNILPSDIMDFVLKNTPSMQAL (also: rhodamine label, position not given here) [Rhodamine-labelled MLL peptide (MLL25)]",
    "Kd [µM]": 94
  }
]
